- subject.of.test: PRMT5-MEP50 (Homo sapiens)
- Sequence (O14744 whole entry): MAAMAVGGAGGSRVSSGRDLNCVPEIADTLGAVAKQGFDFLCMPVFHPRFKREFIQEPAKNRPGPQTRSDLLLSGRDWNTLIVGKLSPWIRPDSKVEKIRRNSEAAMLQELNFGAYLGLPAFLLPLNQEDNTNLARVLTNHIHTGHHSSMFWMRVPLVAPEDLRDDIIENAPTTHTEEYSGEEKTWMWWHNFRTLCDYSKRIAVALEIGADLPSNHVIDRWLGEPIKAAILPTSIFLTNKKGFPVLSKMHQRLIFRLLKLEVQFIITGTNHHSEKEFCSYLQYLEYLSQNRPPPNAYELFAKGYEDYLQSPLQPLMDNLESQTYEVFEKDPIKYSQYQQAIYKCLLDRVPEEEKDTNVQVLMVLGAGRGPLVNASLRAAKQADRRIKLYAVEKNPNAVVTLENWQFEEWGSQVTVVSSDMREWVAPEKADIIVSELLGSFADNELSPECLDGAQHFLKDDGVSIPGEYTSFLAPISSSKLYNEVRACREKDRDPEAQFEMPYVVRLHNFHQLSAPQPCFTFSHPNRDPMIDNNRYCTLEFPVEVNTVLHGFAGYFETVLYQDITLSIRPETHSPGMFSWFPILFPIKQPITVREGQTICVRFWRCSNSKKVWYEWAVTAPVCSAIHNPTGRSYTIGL
- Sequence (Q9BQA1 whole entry partner): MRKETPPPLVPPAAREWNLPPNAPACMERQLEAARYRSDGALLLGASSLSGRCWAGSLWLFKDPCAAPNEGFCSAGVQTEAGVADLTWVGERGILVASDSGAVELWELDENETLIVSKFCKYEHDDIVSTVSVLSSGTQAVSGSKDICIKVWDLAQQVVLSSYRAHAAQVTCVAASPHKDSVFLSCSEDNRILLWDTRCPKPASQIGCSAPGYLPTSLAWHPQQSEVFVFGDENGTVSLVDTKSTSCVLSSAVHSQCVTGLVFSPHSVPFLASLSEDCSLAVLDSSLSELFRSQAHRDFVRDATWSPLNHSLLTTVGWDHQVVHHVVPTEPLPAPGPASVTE
- experimental.details: PRMT5 assay (3H-SAM flashplate)
- conditions: Table 4; PRMT5 biochemical assay
pIC50: −log10 of the molar value.
quantity: pIC50

COc1cccc(CNC(=O)[C@H]2O[C@@H](n3cc(-c4ccn(C)n4)c4c(N)ncnc43)[C@H](O)[C@@H]2O)c1 [Compound I-40] = 6.00 to 7.00
Cn1ccc(-c2cn([C@@H]3O[C@H](C(=O)N[C@H]4C[C@@H](O)C4)[C@@H](O)[C@H]3O)c3ncnc(N)c23)n1 [Compound I-214] = ≤ 6.00
Cn1ccc(-c2cn([C@@H]3O[C@H](C(=O)Nc4cc(F)cc(F)c4)[C@@H](O)[C@H]3O)c3ncnc(N)c23)n1 [Compound I-158] = 6.00 to 7.00
Cn1ccc(-c2cn([C@@H]3O[C@H](C(=O)NC4CCN(c5ccccn5)CC4)[C@@H](O)[C@H]3O)c3ncnc(N)c23)n1 [Compound I-222] = ≤ 6.00
Cn1ccc(-c2cn([C@@H]3O[C@H](C(=O)NC4CCN(CCN)CC4)[C@@H](O)[C@H]3O)c3ncnc(N)c23)n1 [Compound I-41] = ≤ 6.00

Q) Name the reported pIC50 value associated with the compound Cn1ccc(-c2cn([C@@H]3O[C@H](C(=O)NCC#N)[C@@H](O)[C@H]3O)c3ncnc(N)c23)n1 [Compound I-229]
A) ≤ 6.00

---

For each of the molecules below, state its IC50.
- subject.of.test: METTL3/METTL14 (Homo sapiens, UniProt Q86U44)
- Sequence (Q86U44 whole entry, species assumed): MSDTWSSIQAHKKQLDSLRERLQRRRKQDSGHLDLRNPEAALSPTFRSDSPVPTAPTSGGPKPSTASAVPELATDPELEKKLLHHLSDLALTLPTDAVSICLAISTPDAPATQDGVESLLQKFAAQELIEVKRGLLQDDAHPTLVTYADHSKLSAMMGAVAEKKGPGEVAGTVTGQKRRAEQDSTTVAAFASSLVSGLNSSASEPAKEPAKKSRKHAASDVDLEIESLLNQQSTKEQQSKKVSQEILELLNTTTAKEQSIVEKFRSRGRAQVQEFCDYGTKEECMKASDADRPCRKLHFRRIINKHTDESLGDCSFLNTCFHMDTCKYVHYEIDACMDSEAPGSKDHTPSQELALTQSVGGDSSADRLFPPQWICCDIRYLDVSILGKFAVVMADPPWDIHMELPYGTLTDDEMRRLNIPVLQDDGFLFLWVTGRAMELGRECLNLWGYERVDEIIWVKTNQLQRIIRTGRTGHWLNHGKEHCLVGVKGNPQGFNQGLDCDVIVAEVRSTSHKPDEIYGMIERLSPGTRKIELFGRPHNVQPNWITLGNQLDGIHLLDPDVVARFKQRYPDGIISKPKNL
- Sequence (Q9HCE5 whole entry partner, species assumed): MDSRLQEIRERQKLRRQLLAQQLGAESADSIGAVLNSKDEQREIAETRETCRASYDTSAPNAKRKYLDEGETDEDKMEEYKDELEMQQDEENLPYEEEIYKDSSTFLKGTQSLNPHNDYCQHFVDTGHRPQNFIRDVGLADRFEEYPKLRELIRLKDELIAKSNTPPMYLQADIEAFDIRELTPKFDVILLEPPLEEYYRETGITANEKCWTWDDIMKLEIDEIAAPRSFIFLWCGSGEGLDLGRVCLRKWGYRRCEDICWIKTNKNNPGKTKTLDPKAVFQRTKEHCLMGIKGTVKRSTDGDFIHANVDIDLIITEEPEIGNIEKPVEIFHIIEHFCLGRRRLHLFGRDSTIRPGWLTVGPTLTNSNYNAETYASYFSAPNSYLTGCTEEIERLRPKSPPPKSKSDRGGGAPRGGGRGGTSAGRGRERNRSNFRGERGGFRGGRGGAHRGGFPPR
- experimental.details: METTL3-14 standard enzyme assay (3H-SAM flashplate)
- conditions: Table 4; METTL3 biochemical assay

Cn1ccc(-c2cn([C@@H]3O[C@H](C(=O)NCCCn4ccnc4)[C@@H](O)[C@H]3O)c3ncnc(N)c23)n1 [Compound I-102] = 100 to 1000 nM

Please state, for each entry, its recorded IC50.
1. CC(O)CCN(C(=O)[C@H]1O[C@@H](n2cc(-c3ccn(C)n3)c3c(N)ncnc32)[C@H](O)[C@@H]1O)C1CCN(C)CC1 (stereo partly drawn) [Compound I-148]
2. Cn1ccc(-c2cn([C@@H]3O[C@H](C(=O)N(CC[C@H](N)C(=O)O)c4ccc5nc(N)[nH]c5c4)[C@@H](O)[C@H]3O)c3ncnc(N)c23)n1 [Compound I-39]
3. Cn1ccc(-c2cn([C@@H]3O[C@H](C(=O)NN4CCCCC4)[C@@H](O)[C@H]3O)c3ncnc(N)c23)n1 [Compound I-199]
4. Cn1ccc(-c2cn([C@@H]3O[C@H](C(=O)NC4CCc5nc[nH]c5C4)[C@@H](O)[C@H]3O)c3ncnc(N)c23)n1 (stereo partly drawn) [Compound I-194]
5. CNc1nc2ccc(NC(=O)[C@H]3O[C@@H](n4cc(-c5ccn(C)n5)c5c(N)ncnc54)[C@H](O)[C@@H]3O)cc2[nH]1 [Compound I-142]
6. CC(O)CNC(=O)[C@H]1O[C@@H](n2cc(-c3ccn(C)n3)c3c(N)ncnc32)[C@H](O)[C@@H]1O (stereo partly drawn) [Compound I-81]
7. Cn1ccc(-c2cn([C@@H]3O[C@H](C(=O)NC4CCc5nc(N)sc5C4)[C@@H](O)[C@H]3O)c3ncnc(N)c23)n1 (stereo in doubt) [Compound I-161]

A)
1. ≥ 1000 nM
2. 100 to 1000 nM
3. ≥ 1000 nM
4. 10 to 100 nM
5. < 10 nM
6. ≥ 1000 nM
7. 100 to 1000 nM

---

For each of the molecules below, state its IC50.
- subject.of.test: METTL3/METTL14 (Homo sapiens)
- experimental.details: METTL3-14 standard enzyme assay (3H-SAM flashplate)
- conditions: Table 4; METTL3 biochemical assay
- Procedure: METTL3-14 Standard Enzyme Assay Assays were performed in a 25 μl-volume in 384-well V-bottom polypropylene microplates (Greiner Bio-One, cat. No. 781280) at ambient temperature. […] Following two washing cycles with 0.1% Tween-20, the plates were sealed and read on a TopCount (PerkinElmer, Waltham, MA) plate-based scintillation counter. […]

C[C@H](NC(=O)[C@H]1O[C@@H](n2cc(-c3ccn(C)n3)c3c(N)ncnc32)[C@H](O)[C@@H]1O)C1CCNCC1 = 100 to 1000 nM
Cn1ccc(-c2cn([C@@H]3O[C@H](C(=O)N4CCNC(=O)C4)[C@@H](O)[C@H]3O)c3ncnc(N)c23)n1 = ≥ 1000 nM
CNc1ccc2ccc(NC(=O)[C@H]3O[C@@H](n4cc(-c5ccn(C)n5)c5c(N)ncnc54)C[C@@H]3O)cc2n1 = < 10 nM

Please state, for each entry, its recorded IC50.
1. Cn1ccc(-c2cn([C@@H]3O[C@H](C(=O)Nc4cccc(C(F)(F)F)c4)[C@@H](O)[C@H]3O)c3ncnc(N)c23)n1
2. Cn1ccc(-c2cn([C@@H]3O[C@H](C(=O)NC[C@H]4CC[C@@H](O)CC4)[C@@H](O)[C@H]3O)c3ncnc(N)c23)n1

A)
≥ 1000 nM
≥ 1000 nM

---

- subject.of.test: METTL3/METTL14 (Homo sapiens, UniProt Q86U44)
- experimental.details: METTL3-14 standard enzyme assay (3H-SAM flashplate)
- conditions: Table 3; METTL3 biochemical assay
quantity: IC50

Illustrative cases are given below, each with its answer.
Cn1ccc(-c2cn([C@@H]3O[C@H](C(=O)NCc4ccccc4)[C@@H](O)[C@H]3O)c3ncnc(N)c23)n1 = 100 to 1000 nM
Cn1ccc(-c2cn([C@@H]3O[C@H](C(=O)NCC4CCN(CC(F)F)CC4)[C@@H](O)[C@H]3O)c3ncnc(N)c23)n1 = ≥ 1000 nM
Nc1ncnc2c1c(-n1cccn1)cn2[C@H]1C[C@H](O)[C@@H](C(=O)Nc2cc(NC3CCC3)ccn2)O1 = ≥ 1000 nM
CCNc1ccnc(NC(=O)[C@H]2O[C@@H](n3cc(-n4cccn4)c4c(N)ncnc43)C[C@@H]2O)c1 = 100 to 1000 nM

Continue with the compound presented below.
Q) Name the reported IC50 value associated with the compound Nc1ncnc2c1c(-n1cccn1)cn2[C@H]1C[C@H](O)[C@@H](C(=O)Nc2ccc3ccc(N4CCC4)nc3c2)O1
A) < 10 nM

---

- subject.of.test: FLT3 (Homo sapiens)
- Sequence (P36888 27-993, species assumed): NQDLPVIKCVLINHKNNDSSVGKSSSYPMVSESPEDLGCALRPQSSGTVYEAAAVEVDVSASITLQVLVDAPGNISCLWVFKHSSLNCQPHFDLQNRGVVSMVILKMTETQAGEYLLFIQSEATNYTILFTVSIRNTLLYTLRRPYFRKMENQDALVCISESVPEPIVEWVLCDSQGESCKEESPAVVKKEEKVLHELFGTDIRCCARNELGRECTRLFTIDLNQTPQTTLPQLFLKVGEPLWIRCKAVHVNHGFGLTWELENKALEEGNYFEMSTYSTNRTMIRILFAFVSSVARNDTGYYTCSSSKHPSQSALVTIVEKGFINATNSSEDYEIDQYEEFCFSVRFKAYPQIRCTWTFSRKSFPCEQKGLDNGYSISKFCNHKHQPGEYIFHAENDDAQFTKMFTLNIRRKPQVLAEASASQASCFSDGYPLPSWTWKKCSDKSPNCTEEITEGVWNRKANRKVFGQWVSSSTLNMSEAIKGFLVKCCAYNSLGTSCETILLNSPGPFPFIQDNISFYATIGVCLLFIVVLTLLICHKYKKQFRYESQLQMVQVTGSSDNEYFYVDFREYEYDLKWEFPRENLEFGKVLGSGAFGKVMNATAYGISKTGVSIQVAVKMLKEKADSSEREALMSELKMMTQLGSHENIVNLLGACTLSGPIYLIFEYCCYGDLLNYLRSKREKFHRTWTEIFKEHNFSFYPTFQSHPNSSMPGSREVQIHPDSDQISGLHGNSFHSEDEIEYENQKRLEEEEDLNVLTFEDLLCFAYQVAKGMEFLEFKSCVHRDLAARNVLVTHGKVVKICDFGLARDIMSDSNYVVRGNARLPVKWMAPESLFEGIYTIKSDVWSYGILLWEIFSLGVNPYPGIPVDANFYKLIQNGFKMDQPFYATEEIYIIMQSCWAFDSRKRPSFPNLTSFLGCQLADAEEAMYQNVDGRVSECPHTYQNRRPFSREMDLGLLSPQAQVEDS
- experimental.details: FLT3 LanthaScreen assay
- Assay type: biochemical
- conditions: Table 4
pIC50: −log10 of the molar value.
For each of the compounds below, state its pIC50.

CN1CC[C@@H](NC(=O)[C@H]2O[C@@H](n3cc(-c4ccn(C)n4)c4c(N)ncnc43)[C@H](O)[C@@H]2O)C1 [Compound I-184] = ≤ 6.00
Cn1ccc(-c2cn([C@@H]3O[C@H](C(=O)N[C@@H]4CCCNC4)[C@@H](O)[C@H]3O)c3ncnc(N)c23)n1 [Compound I-220] = ≤ 6.00

Q) Name the reported pIC50 value associated with the compound CN1CCC(N(CCCO)C(=O)[C@H]2O[C@@H](n3cc(-c4ccn(C)n4)c4c(N)ncnc43)[C@H](O)[C@@H]2O)CC1 [Compound I-145]
A) ≤ 6.00

---

- subject.of.test: PRMT5-MEP50 (Homo sapiens)
- experimental.details: PRMT5 assay (3H-SAM flashplate)
- conditions: Table 4; PRMT5 biochemical assay
quantity: IC50

Please state, for each entry, its recorded IC50.
1. CCN(CC)C(=O)[C@H]1O[C@@H](n2cc(-c3ccn(C)n3)c3c(N)ncnc32)[C@H](O)[C@@H]1O [Compound I-150]
2. CN(C)c1ccnc(NC(=O)[C@H]2O[C@@H](n3cc(-c4ccn(C)n4)c4c(N)ncnc43)[C@H](O)[C@@H]2O)c1 [Compound I-166]
3. CC1CC(NC(=O)[C@H]2O[C@@H](n3cc(-c4ccn(C)n4)c4c(N)ncnc43)[C@H](O)[C@@H]2O)CCN1C (stereo in doubt) [Compound I-231]
4. Cn1ccc(-c2cn([C@@H]3O[C@H](C(=O)N[C@@H]4CCCNC4)[C@@H](O)[C@H]3O)c3ncnc(N)c23)n1 [Compound I-220]

A)
["100 to 1000 nM", "10 to 100 nM", "100 to 1000 nM", "< 10 nM"]

Please state, for each entry, its recorded IC50.
1. Cn1ccc(-c2cn([C@@H]3O[C@H](C(=O)NC4CCN(c5ccccc5)CC4)[C@@H](O)[C@H]3O)c3ncnc(N)c23)n1 [Compound I-221]
2. Cn1ccc(-c2cn([C@@H]3O[C@H](C(=O)NCC[C@H](N)C(=O)O)[C@@H](O)[C@H]3O)c3ncnc(N)c23)n1 [Compound I-43]
3. CN1CCC(N(CC2CN(C)C2)C(=O)[C@H]2O[C@@H](n3cc(-c4ccn(C)n4)c4c(N)ncnc43)[C@H](O)[C@@H]2O)CC1 [Compound I-47]
4. CC1CC(NC(=O)[C@H]2O[C@@H](n3cc(-c4ccn(C)n4)c4c(N)ncnc43)[C@H](O)[C@@H]2O)CCN1 (stereo in doubt) [Compound I-211]
5. Cn1ccc(-c2cn([C@@H]3O[C@H](C(=O)Nc4cc(NCC(F)F)ccn4)[C@@H](O)[C@H]3O)c3ncnc(N)c23)n1 [Compound I-169]

A)
["100 to 1000 nM", "≥ 1000 nM", "10 to 100 nM", "100 to 1000 nM", "100 to 1000 nM"]

Please state, for each entry, its recorded IC50.
1. Cn1ccc(-c2cn([C@@H]3O[C@H](C(=O)Nc4ccc5ccc(N6CCC6)nc5c4)[C@@H](O)[C@@H]3F)c3ncnc(N)c23)n1 [Compound I-33]
2. CN1CCC(N(CCCNC(=O)OCc2ccccc2)C(=O)[C@H]2O[C@@H](n3cc(-c4ccn(C)n4)c4c(N)ncnc43)[C@H](O)[C@@H]2O)CC1 [Compound I-49]
3. Cn1ccc(-c2cn([C@@H]3O[C@H](C(=O)NC4CCNC(=O)C4)[C@@H](O)[C@H]3O)c3ncnc(N)c23)n1 (stereo partly drawn) [Compound I-175]
4. Cn1ccc(-c2cn([C@@H]3O[C@H](C(=O)N4CCC[C@@H](NS(C)(=O)=O)C4)[C@@H](O)[C@H]3O)c3ncnc(N)c23)n1 [Compound I-151]
5. CN1CCC(N(CCC#N)C(=O)[C@H]2O[C@@H](n3cc(-c4ccn(C)n4)c4c(N)ncnc43)[C@H](O)[C@@H]2O)CC1 [Compound I-144]
6. Cn1ccc(-c2cn([C@@H]3O[C@H](C(=O)Nc4cc(NC5CCC5)ccn4)[C@@H](O)[C@H]3O)c3ncnc(N)c23)n1 [Compound I-162]
7. CN1[C@@H]2CC[C@H]1C[C@@H](NC(=O)[C@H]1O[C@@H](n3cc(-c4ccn(C)n4)c4c(N)ncnc43)[C@H](O)[C@@H]1O)C2 [Compound I-187]
8. CN1CCC(NC(=O)[C@H]2O[C@@H](n3cc(-c4ccn(C)n4)c4c(N)ncnc43)[C@@H](F)[C@@H]2O)CC1 [Compound I-60]

A)
≥ 1000 nM
10 to 100 nM
≥ 1000 nM
≥ 1000 nM
10 to 100 nM
10 to 100 nM
10 to 100 nM
≥ 1000 nM

Please state, for each entry, its recorded IC50.
1. Cn1ccc(-c2cn([C@@H]3O[C@H](C(=O)Nc4cc(N5CCC5)ccn4)[C@@H](O)[C@H]3O)c3ncnc(N)c23)n1 [Compound I-168]
2. Cn1ccc(-c2cn([C@@H]3O[C@H](C(=O)N4CCNCC4)[C@@H](O)[C@H]3O)c3ncnc(N)c23)n1 [Compound I-176]

A)
1: 10 to 100 nM; 2: 100 to 1000 nM

Please state, for each entry, its recorded IC50.
1. CN1CCC(N(CCCO)C(=O)[C@H]2O[C@@H](n3cc(-c4ccn(C)n4)c4c(N)ncnc43)[C@H](O)[C@@H]2O)CC1 [Compound I-145]
2. Cn1ccc(-c2cn([C@@H]3O[C@H](C(=O)NC4CCN5CCCC5C4)[C@@H](O)[C@H]3O)c3ncnc(N)c23)n1 (stereo partly drawn) [Compound I-206]
3. Cn1ccc(-c2cn([C@@H]3O[C@H](C(=O)NN4CCCCC4)[C@@H](O)[C@H]3O)c3ncnc(N)c23)n1 [Compound I-199]

A)
["< 10 nM", "100 to 1000 nM", "100 to 1000 nM"]

Please state, for each entry, its recorded IC50.
1. CN1CCC(NC(=O)[C@H]2O[C@@H](n3cc(C4CCCC4)c4c(N)ncnc43)[C@H](O)[C@@H]2O)CC1 [Compound I-56]
2. CC(=O)N1CCC(NC(=O)[C@H]2O[C@@H](n3cc(-c4ccn(C)n4)c4c(N)ncnc43)[C@H](O)[C@@H]2O)CC1 [Compound I-37]

A)
100 to 1000 nM
≥ 1000 nM
